Activity at 133 nM Antibody Concentration (% Survival Inhibition), N = 2 values for the binders below.
system under test: KDR (human, UniProt P35968 20-1356)
Sequence (P35968 20-1356): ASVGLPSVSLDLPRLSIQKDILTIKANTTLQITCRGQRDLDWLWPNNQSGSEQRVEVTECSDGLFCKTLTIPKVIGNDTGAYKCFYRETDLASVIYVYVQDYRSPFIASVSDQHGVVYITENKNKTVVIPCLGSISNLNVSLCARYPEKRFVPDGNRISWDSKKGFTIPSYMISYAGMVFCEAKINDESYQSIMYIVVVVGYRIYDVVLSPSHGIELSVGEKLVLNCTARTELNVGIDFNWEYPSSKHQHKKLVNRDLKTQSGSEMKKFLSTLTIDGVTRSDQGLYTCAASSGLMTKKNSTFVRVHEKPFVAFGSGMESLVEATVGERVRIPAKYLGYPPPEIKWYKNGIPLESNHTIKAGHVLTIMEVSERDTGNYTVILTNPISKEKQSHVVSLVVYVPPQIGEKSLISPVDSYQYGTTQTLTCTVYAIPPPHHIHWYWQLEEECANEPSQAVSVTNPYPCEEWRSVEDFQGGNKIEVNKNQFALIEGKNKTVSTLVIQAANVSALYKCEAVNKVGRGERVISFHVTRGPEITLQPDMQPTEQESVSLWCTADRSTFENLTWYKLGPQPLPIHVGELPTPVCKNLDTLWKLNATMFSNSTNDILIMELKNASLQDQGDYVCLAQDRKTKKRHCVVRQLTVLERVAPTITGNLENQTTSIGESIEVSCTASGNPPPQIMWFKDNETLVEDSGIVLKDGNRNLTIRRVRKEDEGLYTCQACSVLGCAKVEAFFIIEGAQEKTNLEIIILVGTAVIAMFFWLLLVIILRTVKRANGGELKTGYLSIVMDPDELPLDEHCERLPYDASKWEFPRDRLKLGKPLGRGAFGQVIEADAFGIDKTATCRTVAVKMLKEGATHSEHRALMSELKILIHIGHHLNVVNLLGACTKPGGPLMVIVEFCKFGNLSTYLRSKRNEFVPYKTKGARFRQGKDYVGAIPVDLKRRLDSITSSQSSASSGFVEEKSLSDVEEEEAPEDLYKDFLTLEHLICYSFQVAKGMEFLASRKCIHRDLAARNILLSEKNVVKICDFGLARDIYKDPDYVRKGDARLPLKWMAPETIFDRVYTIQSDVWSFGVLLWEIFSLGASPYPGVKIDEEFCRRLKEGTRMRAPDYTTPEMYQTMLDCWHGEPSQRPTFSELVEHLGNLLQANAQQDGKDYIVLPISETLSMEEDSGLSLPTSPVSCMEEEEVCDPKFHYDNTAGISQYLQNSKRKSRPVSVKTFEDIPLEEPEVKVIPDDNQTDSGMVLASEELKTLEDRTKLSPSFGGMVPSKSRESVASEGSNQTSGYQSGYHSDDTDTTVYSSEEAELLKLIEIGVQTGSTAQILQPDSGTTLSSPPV
experiment description: cell-based or functional assay
Give the value in % but do not write % after it.

Here's what some known entries look like.
binder="22B8 (antibody, V domains shown) VH: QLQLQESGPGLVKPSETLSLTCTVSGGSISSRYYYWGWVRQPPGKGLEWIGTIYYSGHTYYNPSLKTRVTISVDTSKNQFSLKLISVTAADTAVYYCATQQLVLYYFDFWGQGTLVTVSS VL: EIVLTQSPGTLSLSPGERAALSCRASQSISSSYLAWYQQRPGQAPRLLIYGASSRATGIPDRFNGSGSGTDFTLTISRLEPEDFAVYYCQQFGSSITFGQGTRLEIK" units=% experimental_result=87
binder="21H9 (antibody, V domains shown) VH: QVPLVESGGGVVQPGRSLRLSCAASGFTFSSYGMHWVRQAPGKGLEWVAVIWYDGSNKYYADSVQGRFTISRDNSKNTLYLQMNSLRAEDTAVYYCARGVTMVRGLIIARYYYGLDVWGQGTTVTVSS VL: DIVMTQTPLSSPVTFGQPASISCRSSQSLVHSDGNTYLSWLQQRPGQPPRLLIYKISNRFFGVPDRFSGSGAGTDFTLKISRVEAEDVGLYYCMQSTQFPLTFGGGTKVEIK" units=% experimental_result=-16
binder="27A3 (antibody, V domains shown) VH: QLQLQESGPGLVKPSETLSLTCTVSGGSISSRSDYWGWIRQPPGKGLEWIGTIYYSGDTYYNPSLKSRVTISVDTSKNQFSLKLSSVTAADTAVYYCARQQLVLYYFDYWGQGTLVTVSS VL: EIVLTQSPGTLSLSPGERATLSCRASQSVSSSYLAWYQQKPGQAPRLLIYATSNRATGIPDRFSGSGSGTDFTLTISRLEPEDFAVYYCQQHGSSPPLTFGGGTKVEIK" units=% experimental_result=81
binder="29A3 (antibody, V domains shown) VH: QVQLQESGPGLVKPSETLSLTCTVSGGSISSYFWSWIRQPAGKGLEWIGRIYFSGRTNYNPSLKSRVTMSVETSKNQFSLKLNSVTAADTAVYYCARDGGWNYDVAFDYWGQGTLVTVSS VL: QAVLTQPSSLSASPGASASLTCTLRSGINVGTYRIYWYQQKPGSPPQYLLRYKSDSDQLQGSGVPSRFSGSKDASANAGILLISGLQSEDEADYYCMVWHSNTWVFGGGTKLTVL" units=% experimental_result=-156
binder="33B1 (antibody, V domains shown) VH: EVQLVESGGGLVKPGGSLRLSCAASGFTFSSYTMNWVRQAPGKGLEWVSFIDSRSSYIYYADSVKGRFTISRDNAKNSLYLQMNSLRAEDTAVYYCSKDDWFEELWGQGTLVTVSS VL: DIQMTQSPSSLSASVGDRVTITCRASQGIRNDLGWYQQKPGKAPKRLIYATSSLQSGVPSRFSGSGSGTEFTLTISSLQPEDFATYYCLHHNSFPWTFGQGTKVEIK" units=% experimental_result=66

For 24B3 (antibody, V domains shown) VH: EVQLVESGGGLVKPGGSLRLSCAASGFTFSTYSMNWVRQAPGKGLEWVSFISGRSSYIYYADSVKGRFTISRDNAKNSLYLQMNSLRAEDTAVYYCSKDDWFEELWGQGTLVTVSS VL: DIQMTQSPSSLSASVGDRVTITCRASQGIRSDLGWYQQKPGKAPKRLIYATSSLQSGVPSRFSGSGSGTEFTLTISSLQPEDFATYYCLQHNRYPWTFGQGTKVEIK , what is its reported Activity at 133 nM Antibody Concentration (% Survival Inhibition), N = 2? 64

Entry to check: 29H3 (antibody, V domains shown) VH: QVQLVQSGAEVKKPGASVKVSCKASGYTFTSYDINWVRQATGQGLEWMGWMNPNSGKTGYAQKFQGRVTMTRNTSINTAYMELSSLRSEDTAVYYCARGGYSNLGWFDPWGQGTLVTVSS VL: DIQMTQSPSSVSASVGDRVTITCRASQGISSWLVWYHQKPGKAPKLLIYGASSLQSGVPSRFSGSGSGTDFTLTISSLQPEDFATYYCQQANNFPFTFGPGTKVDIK -136

Entry to check: 21H6 (antibody, V domains shown) VH: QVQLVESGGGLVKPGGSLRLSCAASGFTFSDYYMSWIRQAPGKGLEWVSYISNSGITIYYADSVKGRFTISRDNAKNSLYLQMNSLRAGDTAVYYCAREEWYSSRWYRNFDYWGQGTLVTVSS VL: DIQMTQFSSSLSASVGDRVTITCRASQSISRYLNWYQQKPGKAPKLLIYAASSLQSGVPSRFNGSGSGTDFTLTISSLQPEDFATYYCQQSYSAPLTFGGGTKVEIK 77

Entry to check: 31E11 (antibody, V domains shown) VH: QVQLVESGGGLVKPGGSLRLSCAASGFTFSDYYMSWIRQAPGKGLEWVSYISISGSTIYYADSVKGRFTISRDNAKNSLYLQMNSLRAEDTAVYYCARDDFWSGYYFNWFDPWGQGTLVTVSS VL: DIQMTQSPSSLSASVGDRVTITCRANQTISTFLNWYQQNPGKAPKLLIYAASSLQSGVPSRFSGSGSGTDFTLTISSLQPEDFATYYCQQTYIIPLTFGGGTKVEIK 95

Entry to check: 30F6 (antibody, V domains shown) VH: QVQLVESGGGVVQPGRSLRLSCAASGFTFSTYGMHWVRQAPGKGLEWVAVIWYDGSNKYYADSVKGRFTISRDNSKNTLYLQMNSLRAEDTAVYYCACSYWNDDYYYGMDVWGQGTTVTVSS VL: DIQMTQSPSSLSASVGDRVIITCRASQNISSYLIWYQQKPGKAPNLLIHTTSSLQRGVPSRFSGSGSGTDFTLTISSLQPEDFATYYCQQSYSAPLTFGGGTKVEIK 74
